Target: NUDT7 (Homo sapiens)
Construct: residues 14-235, E. coli, pNIC28-Bsa4, N-terminal His6 tag removed by TEV, construct 26672 Da
Sequence (P0C024 14-235): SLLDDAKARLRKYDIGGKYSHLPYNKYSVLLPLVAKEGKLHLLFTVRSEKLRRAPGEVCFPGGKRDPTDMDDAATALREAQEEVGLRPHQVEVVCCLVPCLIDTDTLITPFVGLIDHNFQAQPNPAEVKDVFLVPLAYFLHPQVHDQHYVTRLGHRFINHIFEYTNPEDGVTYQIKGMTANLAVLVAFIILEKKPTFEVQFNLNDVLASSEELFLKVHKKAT
Parameters: Intact protein LC/MS covalent labelling, fragments in pools of five, 200 uM each, 4 °C
Conditions: 24 h, 4 °C, pool of five; 200 µM; covalent
assay endpoint: NUDT7
Please reply with the number alone, leaving off any unit.

Sample O=C(CCl)N1CCOC1=O [PCM-0102943] — what was its NUDT7?
0.08

Sample NC(=O)c1c(NC(=O)CCl)sc2c1CCC2 [PCM-0102164] — what was its NUDT7?
0.28

Sample C=CC(=O)NC(=O)NCc1ccccc1 [PCM-0102834] — what was its NUDT7?
0.35

Sample CCC(C)NC(=O)NC(=O)CCl (stereo not shown) [PCM-0102908] — what was its NUDT7?
0

Sample O=C(CCl)NC(=O)NCc1cccs1 [PCM-0102753] — what was its NUDT7?
0

Sample C=CC(=O)N1CC(c2ccccc2)C2COCCC21 (stereo not shown) [PCM-0102687] — what was its NUDT7?
0

Sample Cl.O=C(CCl)N1CCN(Cc2ccsc2)CC1 [PCM-0102739] — what was its NUDT7?
0.07

Sample Cc1c(Cl)cnc(NC(=O)CCl)c1Cl [PCM-0102657] — what was its NUDT7?
0.06

Sample C=CC(=O)N1CCCC(NC(=O)c2ccc(C(F)(F)F)cc2)C1 (stereo not shown) [PCM-0102607] — what was its NUDT7?
0

Sample C=CC(=O)N(C)C1CCCCNC1=O (stereo not shown) [PCM-0102484] — what was its NUDT7?
0

Sample CC1CC(C)CN(C(=O)CCl)C1 (stereo not shown) [PCM-0102789] — what was its NUDT7?
0

Sample O=C(CCl)NC(=O)Cc1ccccc1 [PCM-0102902] — what was its NUDT7?
0

Sample O=C(CCl)NNC(=O)c1ccc([N+](=O)[O-])cc1 [PCM-0102885] — what was its NUDT7?
0

Sample C=CC(=O)Nc1ccccc1F [PCM-0102856] — what was its NUDT7?
0

Sample O=C(CCl)NCc1cccs1 [PCM-0102280] — what was its NUDT7?
0

Sample N#CC(c1ccccc1)N1CCN(C(=O)CCl)CC1 (stereo not shown) [PCM-0102381] — what was its NUDT7?
0.11

Sample C=CC(=O)NC1(c2nc(C)cs2)CCOCC1 [PCM-0102601] — what was its NUDT7?
0

Sample Cc1c(C#N)c(NC(=O)CCl)n(-c2ccc(F)cc2)c1C [PCM-0102099] — what was its NUDT7?
0.17

Sample CS(=O)(=O)c1ccc(Cl)c(NC(=O)CCl)c1 [PCM-0102220] — what was its NUDT7?
0.05

Sample C=CC(=O)NCc1cnc(C)s1 [PCM-0102587] — what was its NUDT7?
0

Sample C=CC(=O)N1CCC(n2ncc3ccccc32)C1 (stereo not shown) [PCM-0102966] — what was its NUDT7?
0

Sample O=C(CCl)Nc1c(Cl)cc(Cl)cc1C(=O)O [PCM-0102576] — what was its NUDT7?
0

Sample CN(CC(F)(F)F)C(=O)CCl [PCM-0102674] — what was its NUDT7?
0.11

Sample O=C(CCl)Nc1ccc(F)c([N+](=O)[O-])c1 [PCM-0102238] — what was its NUDT7?
0.23

Sample O=C(CCl)N1CCN(c2ccccc2Cl)CC1 [PCM-0102297] — what was its NUDT7?
0.35

Sample CCN(C(=O)CCl)c1ccc(F)cc1 [PCM-0102900] — what was its NUDT7?
0.29

Sample O=C(CCl)Nc1cc2[nH]c(=O)[nH]c2cc1Br [PCM-0102388] — what was its NUDT7?
0

Sample O=C(CCl)Nc1nc(-c2ccc(F)cc2)cs1 [PCM-0102809] — what was its NUDT7?
0.37

Sample CC1(NC(=O)CCl)CCS(=O)(=O)C1 (stereo not shown) [PCM-0102230] — what was its NUDT7?
0

Sample CN(C(=O)CCl)C1CCCc2ccccc21 (stereo not shown) [PCM-0102703] — what was its NUDT7?
0.3

Sample O=C(CCl)Nc1ccc(F)cc1 [PCM-0103002] — what was its NUDT7?
0

Sample C=CC(=O)N1CCCC1c1cc(C)on1 (stereo not shown) [PCM-0102683] — what was its NUDT7?
0

Sample C=CC(=O)N1CC(NC(=O)C(F)(F)F)CCC1C(F)(F)F (stereo not shown) [PCM-0102603] — what was its NUDT7?
0

Sample C=CC(=O)NC1(c2nnc3n2CCCC3)CCC1 [PCM-0102639] — what was its NUDT7?
0

Sample O=C(CCl)Nc1cc(F)ccc1C(=O)O [PCM-0102247] — what was its NUDT7?
0

Sample O=C(CCl)Nc1ccc(F)c(Cl)c1 [PCM-0102217] — what was its NUDT7?
0

Sample C=CC(=O)N1CCn2c(cc3c(Cl)cccc32)C1 [PCM-0102835] — what was its NUDT7?
0

Sample Cn1nc(-c2ccc(Cl)cc2)cc1NC(=O)CCl [PCM-0102296] — what was its NUDT7?
0.54

Sample NS(=O)(=O)c1ccc2c(c1)CCN2C(=O)CCl [PCM-0102229] — what was its NUDT7?
0

Sample O=C(CCl)NCc1cc(F)cc(F)c1 [PCM-0102790] — what was its NUDT7?
0

Sample CN(C)C(=O)c1cccc(NC(=O)CCl)c1 [PCM-0102345] — what was its NUDT7?
0.1

Sample CN(Cc1cccc(F)c1)C(=O)CCl [PCM-0102747] — what was its NUDT7?
0

Sample N#CCN(C(=O)CCl)c1ccccc1 [PCM-0102471] — what was its NUDT7?
0

Sample COc1ccc(C)cc1NC(=O)CCl [PCM-0103043] — what was its NUDT7?
0.06

Sample CC(c1cc2ccccc2o1)N(C)C(=O)CCl (stereo not shown) [PCM-0102971] — what was its NUDT7?
0.66

Sample O=C(CCl)NNC(=O)c1ccc(F)cc1 [PCM-0102430] — what was its NUDT7?
0
